pIC50: −log10 of the molar value.
Target or system Steroid 17-alpha-hydroxylase/17,20 lyase (Rattus norvegicus, UniProt P11715); metric pIC50; compiled from varied reports.

>>> experimental_value("CCC(=O)OC(C)(c1ccncc1)c1cnc(-c2ccc(F)cc2)s1 (stereo not shown)")
"> 7.30"
>>> experimental_value("CC(C)C(O)(c1ccncn1)c1ccc2cc(OC(F)(F)F)ccc2n1 (stereo not shown)")
6.01
>>> experimental_value("CCC(c1cnc(-c2ccc(=O)[nH]c2)s1)n1ccnc1 (stereo not shown)")
"6.70 to 7.30"

pIC50 for CC(C)(c1ccc(-c2ccc(O)cc2)cn1)n1ccnc1 ?
> 7.30

One more compound: CCCC(=O)OC(C)(c1ccncc1)c1cnc(-c2ccc(F)cc2)s1 (stereo not shown)
> 7.30

One more compound: CC(O)(c1ccncc1)c1cnc(-c2ccc(C#N)c(Cl)c2)s1 (stereo not shown)
> 7.30

One more compound: CCC(CC)C(c1ccc2nc(N)sc2c1)n1ccnc1 (stereo not shown)
> 5.30

One more compound: CCC(C(c1ccc2nc(N)sc2c1)n1ccnc1)N(C)C (stereo not shown)
> 5.30

One more compound: CCC(c1ccc(-c2ccc(NC(C)=O)cc2)cn1)n1ccnc1 (stereo not shown)
> 7.30

One more compound: CC(C)C(c1ccc2cc(OCC(F)(F)F)ccc2c1)n1ncnn1 (stereo not shown)
6.34
